Reference source for all entries: patent US9980943B2

Listing: CMV-LACZ in Myotubes, signal relative to DMSO of selected compounds
System: β-galactosidase in CMV-LacZ C2C12 myotubes
protocol details: CMV-LacZ secondary screen in C2C12 myotubes (β-Gal stabilizing assay)
Assay type: cell-based, mouse
condition info: 20 uM; C2C12 CMV-LacZ myotubes; fold relative to DMSO
Could you keep your reply to the number by itself?

Consider the worked cases shown below.
N#Cc1ccc(Sc2nc3ccccc3[nH]2)cc1C#N
1.0459
O=C(N/N=C/c1c[nH]c2ccccc12)c1cc(Cl)ccc1O
1.1456
CC(C)N(CCO)C(=O)CCc1nnc(CCCc2ccccc2)o1
0.9583
COc1cc(NC(=O)OCc2ccccc2)c2ncccc2c1
1.1576
CCOc1ccc(NC(=O)CN2C(=O)S/C(=C/c3cccn3C)C2=O)cc1
1.233
CC1CCCCC12NC(=O)N(CC(=O)OCc1cccc(F)c1)C2=O (stereo not drawn)
0.8847

Lookup result for COCCSc1ccccc1C(=O)Nc1cc(C)cc(C)c1 ; measured CMV-LACZ in Myotubes, signal relative to DMSO: 0.9578

Lookup result for Cc1ccc(C2=C(CC(=O)O)C(=O)CC2)cc1 ; measured CMV-LACZ in Myotubes, signal relative to DMSO: 1.005

Lookup result for COC(=O)C1=NNC2(C)C(=O)N(c3ccc(C)cc3)C(=O)C12 (stereo not drawn) ; measured CMV-LACZ in Myotubes, signal relative to DMSO: 0.9975

* * *

Test system: α7 integrin (LacZ reporter in α7+/LacZ myotubes)
protocol details: Myotube α7 integrin FDG assay (Burkin assay in myotubes, 96-well)
Type: cell-based, mouse
condition info: myotubes, 0.5 uM
Classify by measured Burkin Assay in Myotubes, α7 integrin LacZ reporter signal relative to DMSO: class 1 if it is equal to or exceeds 1, class 0 if it is smaller.

Check out these entries, answers already filled in.
CCC(CC)C(=O)Nc1c(C(=O)N2CCN(c3ccccc3)CC2)oc2ccccc12
class 0
N#Cc1ccc(Sc2nc3ccccc3[nH]2)cc1C#N
class 1
COc1cccc(C(=O)COc2ccc3ccc(=O)oc3c2)c1
class 1
O=C(Nc1ccc(Oc2cccnc2)cc1)c1ccccc1Cl
class 0
O=C(O)CCCNC(=O)CCn1nnc2ccccc2c1=O
class 0

Prompt: Quick check, Burkin Assay in Myotubes, α7 integrin LacZ reporter signal relative to DMSO >= 1? Cc1ccc(S(=O)(=O)N2CN(CC3CCCO3)c3nc4ccccc4nc32)c(C)c1 (stereo not drawn)
Response: class 0

Prompt: Quick check, Burkin Assay in Myotubes, α7 integrin LacZ reporter signal relative to DMSO >= 1? CCCN(C(=O)c1ccc(S(=O)(=O)N2CCCC2)cc1)C1CCS(=O)(=O)C1 (stereo not drawn)
Response: class 0

Prompt: Quick check, Burkin Assay in Myotubes, α7 integrin LacZ reporter signal relative to DMSO >= 1? CC1CCCCC1NC(=O)CSc1nnc(COc2ccc(Cl)cc2)o1 (stereo not drawn)
Response: class 1

Prompt: Quick check, Burkin Assay in Myotubes, α7 integrin LacZ reporter signal relative to DMSO >= 1? CC(C)(C)c1ccc(C(=O)OCC(=O)Nc2sc3c(c2C#N)CCC3)cc1
Response: class 0

Prompt: Quick check, Burkin Assay in Myotubes, α7 integrin LacZ reporter signal relative to DMSO >= 1? Cc1[nH]c(=O)[nH]c(=O)c1S(=O)(=O)Nc1ccc(F)cc1Cl
Response: class 1

Prompt: Quick check, Burkin Assay in Myotubes, α7 integrin LacZ reporter signal relative to DMSO >= 1? Cc1cc2ccccc2n2c(SCC(=O)NCc3cccs3)nnc12
Response: class 0

Prompt: Quick check, Burkin Assay in Myotubes, α7 integrin LacZ reporter signal relative to DMSO >= 1? Cn1cc(CN2CCC(C(=O)Nc3cccc(-c4cscn4)c3)CC2)cn1
Response: class 0

Prompt: Quick check, Burkin Assay in Myotubes, α7 integrin LacZ reporter signal relative to DMSO >= 1? Cc1cc(C)cc(OCC(=O)N/N=C/c2ccccn2)c1
Response: class 1

Prompt: Quick check, Burkin Assay in Myotubes, α7 integrin LacZ reporter signal relative to DMSO >= 1? Cn1c(O)c(C(C#N)=C2N=c3ccccc3=N2)c2ccccc21
Response: class 0

Prompt: Quick check, Burkin Assay in Myotubes, α7 integrin LacZ reporter signal relative to DMSO >= 1? COc1ccc(N2CCN(CCC3Oc4cc([N+](=O)[O-])ccc4NC3=O)CC2)cc1 (stereo not drawn)
Response: class 0

Prompt: Quick check, Burkin Assay in Myotubes, α7 integrin LacZ reporter signal relative to DMSO >= 1? Cc1ccc(C(=O)N2CCN(S(=O)(=O)N3CCOCC3)CC2)cc1
Response: class 0

Prompt: Quick check, Burkin Assay in Myotubes, α7 integrin LacZ reporter signal relative to DMSO >= 1? N/C(=N\OC(=O)c1cccc(C(F)(F)F)c1)c1cnccn1
Response: class 1

Prompt: Quick check, Burkin Assay in Myotubes, α7 integrin LacZ reporter signal relative to DMSO >= 1? CNC(=O)CSc1nnc(-c2ccc3c(c2)OCO3)n1C
Response: class 1

Prompt: Quick check, Burkin Assay in Myotubes, α7 integrin LacZ reporter signal relative to DMSO >= 1? CSc1ccc(S(=O)(=O)NCc2ccccc2)cc1
Response: class 0

Prompt: Quick check, Burkin Assay in Myotubes, α7 integrin LacZ reporter signal relative to DMSO >= 1? NS(=O)(=O)c1ccc(NC(=O)CN2CCc3ccccc32)cc1
Response: class 0

Prompt: Quick check, Burkin Assay in Myotubes, α7 integrin LacZ reporter signal relative to DMSO >= 1? Cc1nnc(SCC(=O)c2ccc(Br)cc2)s1
Response: class 0

Prompt: Quick check, Burkin Assay in Myotubes, α7 integrin LacZ reporter signal relative to DMSO >= 1? CCOC(=O)c1cc(C(=O)OCC)c(=O)[nH]c1SCc1ccccc1
Response: class 0

Prompt: Quick check, Burkin Assay in Myotubes, α7 integrin LacZ reporter signal relative to DMSO >= 1? c1ccc(-c2nn[nH]n2)nc1
Response: class 0

Prompt: Quick check, Burkin Assay in Myotubes, α7 integrin LacZ reporter signal relative to DMSO >= 1? COc1ccc(C(=O)Nc2ccc(Cl)cn2)cc1Cl
Response: class 1

Prompt: Quick check, Burkin Assay in Myotubes, α7 integrin LacZ reporter signal relative to DMSO >= 1? CN(C)C1(CN=Cc2cc(Cl)cc([N+](=O)[O-])c2O)CCCCC1
Response: class 1

Prompt: Quick check, Burkin Assay in Myotubes, α7 integrin LacZ reporter signal relative to DMSO >= 1? CN(C)CCNc1ncnc2sc(-c3ccccc3)cc12
Response: class 0
